- System: SETVI (Foxtail, Green)
- method_notes: Postemergence herbicidal evaluation
- Type: in vivo, Setaria viridis
- conditions_used: postemergence, rate 0.0315 kg/ha
SETVI herbicidal rating listing for selected molecules.
API note: the answer field is a bare number with no unit suffix.

Examples with answers:
>>> reported("CCOC(=O)CN1C(=O)CO/C1=N/c1cc(-n2c(=O)cc(C(F)(F)F)n(C)c2=O)c(F)cc1Cl")
5.0
>>> reported("C#CCOC(=O)CC1SC(=Nc2cc(-n3c(=O)cc(C(F)(F)F)n(C)c3=O)c(F)cc2Cl)N(C)C1=O (stereo not shown)")
9.0
>>> reported("CCOC(=O)CN1C(=O)C(=Cc2ccccc2)SC1=Nc1cc(-n2c(=O)cc(C(F)(F)F)n(C)c2=O)c(F)cc1Cl")
2.0

So what does the record say about SETVI herbicidal rating for "CN(C)N1C(=O)CSC1=Nc1cc(-n2c(=O)cc(C(F)(F)F)n(C)c2=O)c(F)cc1Cl" ?
4.0

* * *

- Test system: CHEAL (Lambsquarters, Common)
- method_notes: Preemergence herbicidal evaluation
- Assay type: in vivo, Chenopodium album
- conditions_used: preemergence, 0.2500 kg/ha, rated 4-5 weeks after treatment, 0-9 scale
CHEAL rating listing for selected molecules.
API note: the answer field is a bare number with no unit suffix.

Examples with answers:
>>> reported("CN1C(=O)C(CC(=O)Nc2ccccc2)SC1=Nc1cc(-n2c(=O)cc(C(F)(F)F)n(C)c2=O)c(F)cc1Cl (stereo not shown)")
9.0
>>> reported("CN1C(=O)C(CC(=O)NS(=O)(=O)c2ccccc2)SC1=Nc1cc(-n2c(=O)cc(C(F)(F)F)n(C)c2=O)c(F)cc1Cl (stereo not shown)")
1.0
>>> reported("C#CCOC(=O)CC1SC(=Nc2cc(-n3c(=O)cc(C(F)(F)F)n(C)c3=O)c(F)cc2Cl)N(C)C1=O (stereo not shown)")
9.0

So what does the record say about CHEAL rating for CN1C(=O)C(CC(=O)OCCF)SC1=Nc1cc(-n2c(=O)cc(C(F)(F)F)n(C)c2=O)c(F)cc1Cl (stereo not shown) ?
9.0

* * *

- Test system: IPOHE (Morningglory, Ivyleaf)
- method_notes: Preemergence herbicidal evaluation
- Type: in vivo, Ipomoea hederacea
- conditions_used: rate 0.0313 kg/ha; rated 4-5 weeks after treatment
Preemergence herbicidal rating IPOHE listing for selected compounds.
API note: the answer field is a bare number with no unit suffix.

>>> reported("CC(C)OC(=O)CN1C(=O)CSC1=Nc1cc(-n2c(=O)cc(C(F)(F)F)n(C)c2=O)c(F)cc1Cl [Compound 110]")
4.5
>>> reported("CCOC(=O)CN1C(=O)C(CC(=O)OC)S/C1=N/c1cc(-n2c(=O)cc(C(F)(F)F)n(C)c2=O)c(F)cc1Cl (stereo not shown) [Compound 54]")
6.0

So what does the record say about Preemergence herbicidal rating IPOHE for C[C@@H](C(=O)O)N1C(=O)CS/C1=N/c1cc(-n2c(=O)cc(C(F)(F)F)n(C)c2=O)c(F)cc1Cl [Compound 51] ?
9.0

So what does the record say about Preemergence herbicidal rating IPOHE for COC(=O)COC(=O)CN1C(=O)CSC1=Nc1cc(-n2c(=O)cc(C(F)(F)F)n(C)c2=O)c(F)cc1Cl [Compound 108] ?
0.0

* * *

- Test system: SAGPY (Arrowhead (Pygmaea))
- method_notes: Preemergence weed control under flooded paddy conditions
- Type: in vivo, Sagittaria pygmaea
- conditions_used: 0.0313 kg/ha, rated 3-4 weeks after treatment
Herbicidal rating SAGPY listing for selected molecules.
API note: the answer field is a bare number with no unit suffix.

Examples with answers:
>>> reported("CCOC(=O)CN1C(=O)C(CC(N)=O)S/C1=N/c1cc(-n2c(=O)cc(C(F)(F)F)n(C)c2=O)c(F)cc1Cl (centres unmarked) [Compound 56]")
0.0
>>> reported("CCOC(=O)CN1C(=O)CN(C)C1=Nc1cc(-n2c(=O)cc(C(F)(F)F)n(C)c2=O)c(F)cc1Cl [Compound 25]")
0.0
>>> reported("CCOC(=O)CN1C(=O)CSC1=Nc1cc(-n2c(=O)cc(C(F)(F)F)n(C)c2=O)c(F)cc1Cl [Compound 8]")
0.0
>>> reported("CCOC(=O)/C=C1/S/C(=N/c2cc(-n3c(=O)cc(C(F)(F)F)n(C)c3=O)c(F)cc2Cl)N(CC(=O)OCC)C1=O [Compound 14]")
0.0
>>> reported("CCOC(=O)CN1C(=O)CS(=O)(=O)C1=Nc1cc(-n2c(=O)cc(C(F)(F)F)n(C)c2=O)c(F)cc1Cl [Compound 46]")
0.0

So what does the record say about Herbicidal rating SAGPY for Cn1c(C(F)(F)F)cc(=O)n(-c2cc(N=C3SCC(=O)N3Cc3ccccc3)c(Cl)cc2F)c1=O [Compound 26] ?
0.0

So what does the record say about Herbicidal rating SAGPY for CCOC(=O)CN1C(=O)C(CC(=O)O)S/C1=N/c1cc(-n2c(=O)cc(C(F)(F)F)n(C)c2=O)c(F)cc1Cl (centres unmarked) [Compound 16] ?
0.0

So what does the record say about Herbicidal rating SAGPY for CCOC(=O)CN1C(=O)C(Cc2ccccc2OC)SC1=Nc1cc(-n2c(=O)cc(C(F)(F)F)n(C)c2=O)c(F)cc1Cl (centres unmarked) [Compound 37] ?
0.0
